- protocolDescription: NCI Yeast Anticancer Drug Screen. Data for the mec2-1 strain (AID 157)
- conditionDetails: S. cerevisiae mec2-1 strain, at 3.7 µM, stronger effect = higher value
The panel holds about 79,000 compounds, 15% with a hit somewhere; the sample as a whole holds those more often. Residues, ends and D or L forms follow the SMILES beside them. *: point of attachment. CH2Cl = ClC*
Recorded growth inhibition for the following compounds
Give the value in % but do not write % after it.

In the examples that follow, each entry is paired with its recorded growth inhibition.
[[record]]
compound = "CC(=O)NC(CC(C)C)C(=O)NC(Cc1ccccc1)C(=O)CCl (stereo not drawn) (Ac-Leu-Phe-CH2Cl; configuration not given here)"
numericreadout = 0

[[record]]
compound = "Clc1nc(C(Cl)Cl)nc2sc3c(c12)CCCC3"
numericreadout = 9

[[record]]
compound = "S=C(S)NCC1CCC(CNC(=S)S)CC1 (stereo not drawn)"
numericreadout = -2

[[record]]
compound = "CO[C@@]12[C@H](COC(N)=O)C3=C(C(=O)C(C)=C(N)C3=O)N1C[C@@H]1N[C@@H]12"
numericreadout = 13


Tell us which growth inhibition value is on record for S=C1SCN(CCc2ccccc2)CN1CCc1ccccc1 1

Tell us which growth inhibition value is on record for OB(O)c1ccccc1C#Cc1ccccc1B(O)O 1

Tell us which growth inhibition value is on record for Cc1ccc(I)cc1N=C=S 8

Tell us which growth inhibition value is on record for CCN(CC)CC(O)C1CCC(c2ccccc2)CC1 (stereo not drawn) 12

---

- protocolDescription: NCI Yeast Anticancer Drug Screen. Data for the bub3 strain (AID 167)
- conditionDetails: S. cerevisiae bub3 mutant strain, at 50.0 µM (retest, dose inferred, filed as 5.0)
- Procedure: Growth inhibition of yeast strains with defined genetic alterations is measured as a screen for potential anti-cancer activity. Selected strains with alterations in DNA damage repair or cell cycle control were exposed to compounds and growth inhibition was measured relative to vehicle treated controls. The strain used in this assay is bub3
This is part of a sample that, as a whole, favours compounds with a hit. Of some 79,000 tested, about 15% had one in any assay. Activity calls are given as the source filed them. Rule as the data show it: active = growth inhibition above about 70%; inactive = the rest.
I would appreciate it if you answered using one of these outcomes: Yes for active, No for inactive

Please review the entries below; each comes with its answer.
[[record]]
molecule = "COc1ccc(/C=C(\\NC(=O)c2ccccc2)C(=O)NN(C)c2ccnc3cc(Cl)ccc23)cc1OC"
classlabel = "No"

[[record]]
molecule = "CCCCC1=NNC(=O)C1"
classlabel = "No"

[[record]]
molecule = "S=c1[nH]c2c(Cl)c(Cl)c(Cl)c(Cl)c2[nH]1"
classlabel = "Yes"


Could you please tell me the result logged for Clc1nc(C(Cl)Cl)nc2sc3c(c12)CCCC3 in this assay? Yes

---

- protocolDescription: NCI Yeast Anticancer Drug Screen. Data for the rad18 strain (AID 177)
- conditionDetails: S. cerevisiae rad18 mutant growth inhibition; at 33.0 µM
This is part of a sample that, as a whole, favours compounds with a hit. Of some 79,000 tested, about 15% had one in any assay. The source made the active and inactive calls. Cut-off read from the data, not from the text of the source: active = growth inhibition above about 70%; inactive = the rest.
I would appreciate it if you answered using one of these outcomes: YES for active, NO for inactive

Please review the entries below; each comes with its answer.
[[record]]
compound = "CCOC(=O)C1=C(C)NC(C)=C(C(=O)OCC)C1c1ccccc1Cl"
classlabel = "NO"

[[record]]
compound = "Cc1cc(Cl)nc2nc(Cl)c(N)cc12"
classlabel = "NO"

[[record]]
compound = "CC1CCC2(C(=O)O)CCC3(C)C(=CCC4C5(C)CC(O)C(O)C(C)(CO)C5C(O)CC43C)C2C1C (stereo not drawn)"
classlabel = "NO"


Could you please tell me the result logged for Nc1ccc(CCl)cc1Cc1c(O)ccc2ccccc12 in this assay? NO

Could you please tell me the result logged for CCN(CC)CC(O)c1cc(-c2ccc(Cl)cc2)nc2c(-c3ccccc3)cccc12 (stereo not drawn) in this assay? YES

Could you please tell me the result logged for O=C(/C=N/O)Nc1cc(Cl)c(Cl)cc1Cl in this assay? NO

Could you please tell me the result logged for COc1ccc(N)c2c1C(=O)c1ccccc1C2=O in this assay? NO
